- experimentalTarget: T1, Cynomolgus monkey glycophorin A on Cynomolgus monkey red blood cells (Cynomolgus monkey)
- T1 construct: whole, on cells; also called Cyno RBC; Cyno GPA
- protocolNotes: FACS, RBC Cy01
Outcome: 1 for fluorescence intensity of at least 1000; 0 for anything lower.

Query block: Hi team, for Hu6C12-16 (antibody, V domains shown, IgG format; VH.1g + Vk.1a) VH: EVQLVQSGAEVKKPGASVKVSCKASGYTFTTYTIHWVRQAPGQGLEWIGYINPSSDYTRYNPKFKDRVTLTTDKSTSTAYMELRSLRSDDTAVYYCQTGTRDYWGQGTTVTVSS VL: DIQLTQSPSFLSASVGDRVTITCSAASSVSYIYWYQQKPGKAPKLLIYSTSTLPSGVPSRFSGSGSGTEYTLTISSLQPEDFATYYCHQRNSFPFTFGQGTKLEIK , is the recorded fluorescence intensity at or above 1000?
Result block: 1

Continuing:
Query block: Hi team, for Hu6C12-7 (antibody, V domains shown, IgG format; VH.1g + Vk.1) VH: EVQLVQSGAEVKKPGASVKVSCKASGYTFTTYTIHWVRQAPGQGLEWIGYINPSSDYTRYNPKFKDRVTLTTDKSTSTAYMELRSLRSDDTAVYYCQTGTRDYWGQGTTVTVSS VL: DIQLTQSPSFLSASVGDRVTITCSAASSVSYIYWYQQKPGKAPKLLIYSTSTLPSGVPSRFSGSGSGTEFTLTISSLQPEDFATYYCHQRNSFPFTFGQGTKLEIK , is the recorded fluorescence intensity at or above 1000?
Result block: 1

Query block: Hi team, for Hu6C12-17 (antibody, V domains shown, IgG format; VH.1 + Vk.1b) VH: EVQLVQSGAEVKKPGASVKVSCKASGYTFTTYTIHWVRQAPGQGLEWMGYINPSSDYTRYNPKFKDRVTMTTDTSTSTAYMELRSLRSDDTAVYYCARGTRDYWGQGTTVTVSS VL: DIQLTQSPSFLSASVGDRVTITCSAASSVSYIYWFQQKPGKAPKLLIYSTSTLPSGVPSRFSGSGSGTEYTLTISSLQPEDFATYYCHQRNSFPFTFGQGTKLEIK , is the recorded fluorescence intensity at or above 1000?
Result block: 0

Query block: Hi team, for Hu6C12-9 (antibody, V domains shown, IgG format; VH.1 + Vk.1a) VH: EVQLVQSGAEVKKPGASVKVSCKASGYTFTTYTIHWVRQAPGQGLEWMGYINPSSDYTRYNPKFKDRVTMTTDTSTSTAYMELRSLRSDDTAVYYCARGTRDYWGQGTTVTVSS VL: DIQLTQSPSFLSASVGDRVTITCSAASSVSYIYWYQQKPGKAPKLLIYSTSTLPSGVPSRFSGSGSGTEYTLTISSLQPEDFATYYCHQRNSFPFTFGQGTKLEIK , is the recorded fluorescence intensity at or above 1000?
Result block: 0

Query block: Hi team, for Hu6C12-6 (antibody, V domains shown, IgG format; VH.1f + Vk.1) VH: EVQLVQSGAEVKKPGASVKVSCKASGYTFTTYTIHWVRQAPGQGLEWMGYINPSSDYTRYNPKFKDRVTLTTDTSTSTAYMELRSLRSDDTAVYYCQTGTRDYWGQGTTVTVSS VL: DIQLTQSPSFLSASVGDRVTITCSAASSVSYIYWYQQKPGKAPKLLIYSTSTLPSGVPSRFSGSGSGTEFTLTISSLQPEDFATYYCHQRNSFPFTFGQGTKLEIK , is the recorded fluorescence intensity at or above 1000?
Result block: 1

Query block: Hi team, for Hu6C12-1 (antibody, V domains shown, IgG format; VH.1a + Vk.1) VH: EVQLVQSGAEVKKPGASVKVSCKASGYTFTTYTIHWVRQAPGQGLEWMGYINPSSDYTRYNPKFKDRVTMTTDTSTSTAYMELRSLRSDDTAVYYCQRGTRDYWGQGTTVTVSS VL: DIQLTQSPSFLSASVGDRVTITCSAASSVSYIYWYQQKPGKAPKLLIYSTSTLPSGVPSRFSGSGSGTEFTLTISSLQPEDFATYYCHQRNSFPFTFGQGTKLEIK , is the recorded fluorescence intensity at or above 1000?
Result block: 0

Query block: Hi team, for Hu6C12-23 (antibody, V domains shown, IgG format; VH.1f + Vk.1b) VH: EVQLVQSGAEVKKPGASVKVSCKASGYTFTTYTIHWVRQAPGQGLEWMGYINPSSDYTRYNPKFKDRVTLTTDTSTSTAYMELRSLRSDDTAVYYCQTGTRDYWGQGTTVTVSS VL: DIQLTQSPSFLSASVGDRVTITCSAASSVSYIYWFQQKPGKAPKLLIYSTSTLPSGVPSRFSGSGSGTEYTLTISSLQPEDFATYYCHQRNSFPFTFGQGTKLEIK , is the recorded fluorescence intensity at or above 1000?
Result block: 1

Query block: Hi team, for Hu6C12-10 (antibody, V domains shown, IgG format; VH.1a + Vk.1a) VH: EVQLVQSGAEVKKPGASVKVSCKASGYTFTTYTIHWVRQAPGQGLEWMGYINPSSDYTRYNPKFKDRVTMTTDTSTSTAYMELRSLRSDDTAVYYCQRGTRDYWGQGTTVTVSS VL: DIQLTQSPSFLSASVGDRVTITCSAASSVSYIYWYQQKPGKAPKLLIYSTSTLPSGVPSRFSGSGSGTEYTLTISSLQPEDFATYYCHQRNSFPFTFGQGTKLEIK , is the recorded fluorescence intensity at or above 1000?
Result block: 0

Query block: Hi team, for Hu6C12-11 (antibody, V domains shown, IgG format; VH.1b + Vk.1a) VH: EVQLVQSGAEVKKPGASVKVSCKASGYTFTTYTIHWVRQAPGQGLEWMGYINPSSDYTRYNPKFKDRVTMTTDTSTSTAYMELRSLRSDDTAVYYCATGTRDYWGQGTTVTVSS VL: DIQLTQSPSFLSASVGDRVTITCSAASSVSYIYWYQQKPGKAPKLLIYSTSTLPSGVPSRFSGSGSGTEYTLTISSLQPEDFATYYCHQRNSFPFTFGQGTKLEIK , is the recorded fluorescence intensity at or above 1000?
Result block: 0

This collection of values is drawn from patent US20190359687A1.
